Listed below: Hot plate Licking latency values for each entry.
- Tested on: mice
- Assay type: in vivo
- Condition Summary: antagonist pre-treatment + PS (no acetyl L-carnitine); dose (naloxone 1, CGP 35348 100, alpha-M-p-T 200, atropine 5 mg/kg; HC-3 1 μg, pirenzepine 0.1 μg, S-(−)-ET-126 0.1 μg ICV); before treatment
Measured Attribute: Hot plate Licking latency (s)

1. CN1CCC(OC(=O)[C@H](CO)c2ccccc2)CC1 [S-(−)-ET-126, reference compound] ... 15.0
2. C[N+]1(C)CCOC(O)(c2ccc(-c3ccc(C4(O)C[N+](C)(C)CCO4)cc3)cc2)C1.[Br-].[Br-] (stereo not drawn) [HC-3, hemicholinium-3, reference compound] ... 14.1
3. CC(N)(Cc1ccc(O)cc1)C(=O)O (stereo not drawn) [Alpha-M-p-T, alpha-methyl-p-tyrosine, reference compound] ... 14.6

----------
- Test system: mice
- Format: in vivo
- Condition Summary: antagonist pre-treatment + PS (no acetyl L-carnitine); after treatment 15 min
Listed below: Hot plate Licking latency values for each entry.
Measured Attribute: Hot plate Licking latency (s)

1. C=CCN1CC[C@]23c4c5ccc(O)c4O[C@H]2C(=O)CC[C@@]3(O)[C@H]1C5 [Naloxone, naloxone, reference compound] ... 13.3
2. CCOC(OCC)P(=O)(O)CCCN [CGP 35348, reference compound] ... 12.4
3. CN1[C@@H]2CC[C@H]1C[C@@H](OC(=O)C(CO)c1ccccc1)C2 (stereo partly shown) [Atropine, atropine, reference compound] ... 13.7
4. CN1CCC(OC(=O)[C@H](CO)c2ccccc2)CC1 [S-(−)-ET-126, reference compound] ... 15.3
5. CC(N)(Cc1ccc(O)cc1)C(=O)O (stereo not drawn) [Alpha-M-p-T, alpha-methyl-p-tyrosine, reference compound] ... 15.4
6. CN1CCN(CC(=O)N2c3ccccc3C(=O)Nc3cccnc32)CC1 [Pirenzepine, pirenzepine, reference compound] ... 13.9
7. C[N+]1(C)CCOC(O)(c2ccc(-c3ccc(C4(O)C[N+](C)(C)CCO4)cc3)cc2)C1.[Br-].[Br-] (stereo not shown) [HC-3, hemicholinium-3, reference compound] ... 13.7

----------
Listed below: Hot plate Licking latency values for each entry.
- Test system: mice
- Format: in vivo
- Condition Summary: antagonist pre-treatment + PS (no acetyl L-carnitine); after treatment 30 min
Measured Attribute: Hot plate Licking latency (s)

1. CN1CCC(OC(=O)[C@H](CO)c2ccccc2)CC1 [S-(−)-ET-126, reference compound] ... 16.2
2. CN1[C@@H]2CC[C@H]1C[C@@H](OC(=O)C(CO)c1ccccc1)C2 (stereo partly drawn) [Atropine, atropine, reference compound] ... 15.4
3. C[N+]1(C)CCOC(O)(c2ccc(-c3ccc(C4(O)C[N+](C)(C)CCO4)cc3)cc2)C1.[Br-].[Br-] (stereo not drawn) [HC-3, hemicholinium-3, reference compound] ... 15.4

----------
- Test system: mice
- Format: in vivo
- Condition Summary: antagonist pre-treatment + PS (no acetyl L-carnitine); dose (naloxone 1, CGP 35348 100, alpha-M-p-T 200, atropine 5 mg/kg; HC-3 1 μg, pirenzepine 0.1 μg, S-(−)-ET-126 0.1 μg ICV); before treatment
Listed below: Hot plate Licking latency values for each entry.
Measured Attribute: Hot plate Licking latency (s)

1. CCOC(OCC)P(=O)(O)CCCN [CGP 35348, reference compound] ... 14.4
2. C=CCN1CC[C@]23c4c5ccc(O)c4O[C@H]2C(=O)CC[C@@]3(O)[C@H]1C5 [Naloxone, naloxone, reference compound] ... 14.0
3. CN1[C@@H]2CC[C@H]1C[C@@H](OC(=O)C(CO)c1ccccc1)C2 (stereo partly shown) [Atropine, atropine, reference compound] ... 14.1
4. CN1CCN(CC(=O)N2c3ccccc3C(=O)Nc3cccnc32)CC1 [Pirenzepine, pirenzepine, reference compound] ... 13.6
